Test system: Oryza sativa (ORYSA)
Format: in vivo
Settings: pre-emergence, 80 g/ha, crop plant compatibility, in comparison to untreated controls
quantity-kind: Pre-emergence action against ORYSA in % (%)
Give just the number in %; leave the unit off.

See these solved cases before continuing.
CCOC(=O)COc1nn(-c2nc(F)ccc2F)c(-c2cncc(F)c2)c1Br | 20
C[C@@H](Oc1nn(-c2ccnc(Cl)c2)c(-c2ccc(F)nc2)c1Br)C(=O)O | 10
O=C(COc1nn(-c2ccccn2)c(-c2ccc(F)nc2)c1Br)NS(=O)(=O)CC(F)(F)F | 0
CCOC(=O)C[S+]([O-])c1nn(-c2ccccn2)c(-c2cncc(F)c2)c1Cl (stereo not shown) | 20

Incoming: // Input: `COC(=O)CN(C)C(=O)COc1nn(-c2ccccn2)c(-c2ccc(F)nc2)c1Br` . Output its Pre-emergence action against ORYSA in % only.
Outgoing: 0
